assayMethodText: pharmacokinetics of 16 ginsenosides in rat plasma after oral administration of RGS
Assay type: in vivo
setupConditions: SD, rat, in vivo, po, 100 mg/kg, model (scopolamine 1 mg/kg i.p.-treated) rats, oral RGS single dose 100 mg/kg, plasma, mean ± S.D., n = 5; read-out: T Max
Procedure: The SD rats were randomly allocated into two groups, i.e., normal group and SA-treated group. Blood samples were collected from the postocular vein at 0.083, 0.25, 0.5, 1, 2, 3, 4, 6, 8, 12 and 24 h after SA injection. […] Based on a non-compartmental method, WinNonlin software (Phoenix, version 6.1) was employed to calculate the pharmacokinetic parameters. The statistical difference between groups was analyzed by One-Way ANOVA analysis using SPSS Version 17.0. […]

| compound | Tmax / h |
| --- | --- |
| CC(C)=CCCC(C)(O)C1CCC2(C)C1C(O)CC1C3(C)CCC(OC4OC(CO)C(O)C(O)C4O)C(C)(C)C3CCC12C (centres unmarked) | 2 |
| CC(C)=CCCC(C)(O)C1CCC2(C)C1C(O)CC1C3(C)CCC(O)C(C)(C)C3C(OC3OC(CO)C(O)C(O)C3O)CC12C (centres unmarked) | 1.5 |

---

MRT: recorded values
assayMethodText: pharmacokinetics of 16 ginsenosides in rat plasma after oral administration of RGS
Format: in vivo
setupConditions: SD, rat, in vivo, po, 100 mg/kg

| compound | MRT / h |
| --- | --- |
| C=C(CCC=C(C)C)C1CCC2(C)C1C(O)CC1C3(C)CCC(O)C(C)(C)C3C(OC3OC(CO)C(O)C(O)C3O)CC12C (stereo not drawn) [Rk3] | 8.9 |
| CC(C)=CCCC(C)(O)C1CCC2(C)C1C(O)CC1C3(C)CCC(OC4OC(CO)C(O)C(O)C4OC4OC(CO)C(O)C(O)C4O)C(C)(C)C3CCC12C (stereo not drawn) [Rg3] | 22.5 |
| CC(C)=CCC=C(C)C1CCC2(C)C1C(O)CC1C3(C)CCC(OC4OC(CO)C(O)C(O)C4O)C(C)(C)C3CCC12C (stereo not drawn) [Rh3] | 19.8 |
| CC(C)=CCCC(C)(O)C1CCC2(C)C1C(O)CC1C3(C)CCC(O)C(C)(C)C3C(OC3OC(CO)C(O)C(O)C3OC3OC(CO)C(O)C(O)C3O)CC12C (stereo not drawn) [Rf] | 7.4 |
| CC(C)=CCC[C@](C)(O)[C@H]1CC[C@]2(C)[C@@H]1[C@H](O)C[C@@H]1[C@@]3(C)CC[C@H](O)C(C)(C)[C@@H]3[C@@H](O[C@@H]3O[C@H](CO)[C@@H](O)[C@H](O)[C@H]3O[C@@H]3O[C@@H](C)[C@H](O)[C@@H](O)[C@H]3O)C[C@]12C [Rg2, Ginsenoside Rg2] | 26.5 |
| CC(C)=CCC=C(C)C1CCC2(C)C1C(O)CC1C3(C)CCC(O)C(C)(C)C3C(OC3OC(CO)C(O)C(O)C3O)CC12C (stereo not drawn) [Rh4] | 12.3 |

---

assayMethodText: pharmacokinetics of 16 ginsenosides in rat plasma after oral administration of RGS
Assay type: in vivo
setupConditions: SD, rat, in vivo, po, 100 mg/kg, model (scopolamine 1 mg/kg i.p.-treated) rats, oral RGS single dose 100 mg/kg, plasma, mean ± S.D., n = 5; read-out: T1/2 (converted)
half-life: recorded values
measuredEndpoint: half-life (h)

| molecule | valueObserved |
| --- | --- |
| CC(C)=CCCC(C)(O)C1CCC2(C)C1C(O)CC1C3(C)CCC(OC4OC(CO)C(O)C(O)C4O)C(C)(C)C3CCC12C (centres unmarked) [Rh2] | 7.6 |
| CC(C)=CCCC(C)(O)C1CCC2(C)C1C(O)CC1C3(C)CCC(O)C(C)(C)C3C(OC3OC(CO)C(O)C(O)C3O)CC12C (centres unmarked) [Rh1] | 8.9 |
